- Tested on: Leukemia L1210
- protocol.text: Activity against Leukemia L1210, intraperitoneal, increase in life span of mice
- Type: in vivo, female mice (BDF1 family)
- condition.details: Mus musculus, L1210, ip, ip once a day for 5 successive days; daily dosage giving maximum increase of life span; read-out: O.D. (optimum dosage)
ED (maximum ILS) values by entry
Give the quantity in mg/kg, number only.

The cases that follow already have their ED (maximum ILS) on record.
- molecule: "O=NN(CCCl)C(=O)N(CCC1CCCC1)C1C(OC2CCCCC2)OC(CO)C(O)C1O (centres unmarked) [Compound 67]"
  val: 200
- molecule: "CCC(C)OC1OC(CO)C(O)C(N(CC(C)C)C(=O)N(CCCl)N=O)C1O (centres unmarked) [Compound 84]"
  val: 220
- molecule: "O=NN(CCCl)C(=O)N(CCC1CCCC1)C1C(O)C(CO)OC(OC2CCCCC2)C1O (centres unmarked) [Compound 88]"
  val: 200
- molecule: "CCCCCCCCCCN(C[C@H]1O[C@H](OCCCC)[C@H](O)[C@@H](O)[C@@H]1O)C(=O)N(CCCl)N=O [Compound 8]"
  val: 100
- molecule: "COCC(C)OC1OC(CO)C(O)C(N(CC(C)C)C(=O)N(CCCl)N=O)C1O (centres unmarked) [Compound 79]"
  val: 200
- molecule: "CC(C)CN(C(=O)N(CCCl)N=O)[C@H]1[C@@H](OC2CCCCC2)O[C@H](CO)[C@@H]1O [Compound 166]"
  val: 150
- molecule: "CCCCO[C@H]1O[C@H](CN(CC(C)OC)C(=O)N(CCCl)N=O)[C@@H](O)[C@H](O)[C@H]1O (some centres unmarked) [Compound 11]"
  val: 170

Attention now shifts to the item below.
Entry CCOCCO[C@H]1O[C@H](CO)[C@@H](O)[C@H](O)[C@H]1N(CCC(C)(C)C)C(=O)N(CCCl)N=O [Compound 192] needs its ED (maximum ILS) filled in; supply it.
160
